assay: melting temperature; fluorescence melt of hairpins on a sequencing array, two-state fit, raised by 9.35 °C to match UV melts; conditions: sodium 0.088 M
Each entry gets false if its Tm stays under 50 °C, and true if its Tm is 50 °C or above.

INSERT INTO measurements (biosequence, cat) VALUES
  ('GTTTACGAAAGTAAAAC ((((((....))).)))', 'false'),
  ('GCACGCGAAAGCGCTGC ((((((....))).)))', 'true'),
  ('GGGATCGAAAGATCTCCC ((((((....)))..)))', 'false'),
  ('GATCGACCCTTCGATC ((((((....))))))', 'true'),
  ('GTATATCCGAAAGGATAC (((..(((....))))))', 'false'),
  ('GCGTGGCGAAAGCCCGGC ((..(((....)))..))', 'true');
